Reference source for all entries: the supplement of paper PMC9694430

Measured thermal shift delta Tm, listed per entry for reference.
- System: LOC_OS02G08530-cb003
- MEASUREMENT DESCRIPTION: thermal shift delta Tm vs DMSO control; higher = stronger stabilization (binding);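 also: purified Escherichia coli-expressed rice kinase domain construct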
- TEST SETTINGS: 12.5 µM; protein concentration 2 µM
A number alone suffices; assume °C.

Use the examples below as a reference point.
COMPOUND	EXPERIMENTAL SYSTEM	QUANTITY	MEAS VALUE
C=C(C)[C@@H]1CC[C@]2(C)CC[C@]3(C)[C@H](CC[C@@H]4[C@@]5(C)CC[C@H](O)C(C)(C)[C@@H]5CC[C@]43C)[C@@H]12	LOC_OS02G08530-cb003	thermal shift delta Tm	0.21
C[C@@H](Oc1ccc2[nH]nc(/C=C/c3cnn(CCO)c3)c2c1)c1c(Cl)cncc1Cl	LOC_OS02G08530-cb003	thermal shift delta Tm	5.56
COCCOc1cnc2ccn([C@H](C)c3nnc4c(F)cc(-c5cnn(C)c5)cn34)c(=O)c2c1	LOC_OS02G08530-cb003	thermal shift delta Tm	0.71

thermal shift delta Tm measured on `CCn1c(C(=O)N(C2CC2)C2CC2)cc2c3c(ncn3C)c(Nc3cc(C)n(C)n3)nc21` = 1.47

----------
- System: LOC_OS01G52050-cb004
- Sequence (as listed by the source): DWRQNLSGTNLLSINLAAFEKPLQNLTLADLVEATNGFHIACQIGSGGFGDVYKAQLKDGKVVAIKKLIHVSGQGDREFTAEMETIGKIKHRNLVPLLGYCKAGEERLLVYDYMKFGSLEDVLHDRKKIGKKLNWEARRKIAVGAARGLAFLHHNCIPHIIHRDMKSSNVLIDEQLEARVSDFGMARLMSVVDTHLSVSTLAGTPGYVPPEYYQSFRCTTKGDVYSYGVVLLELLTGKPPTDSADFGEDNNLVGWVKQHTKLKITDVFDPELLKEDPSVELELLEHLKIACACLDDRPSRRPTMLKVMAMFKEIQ
- MEASUREMENT DESCRIPTION: thermal shift delta Tm vs DMSO control; higher = stronger stabilization (binding)
- TEST SETTINGS: 12.5 µM; protein concentration 2 µM
Measured thermal shift delta Tm, listed per entry for reference.
A number alone suffices; assume °C.

Use the examples below as a reference point.
MOLECULE	EXPERIMENTAL SYSTEM	U	thermal shift delta Tm
CN1CCC(COc2cnc(-c3cccc(Cn4nc(-c5cccc(C#N)c5)ccc4=O)c3)nc2)CC1	LOC_OS01G52050-cb004	°C	0.04
Cc1ccc(-n2nc(C(C)(C)C)cc2NC(=O)NCc2cc(F)ccc2Oc2ccc3c(cnn3CCO)c2)cc1 [Pexmetinib (ARRY-614)]	LOC_OS01G52050-cb004	°C	1.87
CC(=O)O/N=C1/C(c2c(O)[nH]c3cc(Br)ccc23)=Nc2ccccc21 [BIO-acetoxime]	LOC_OS01G52050-cb004	°C	0.12
N#C/C(=C\c1ccc(O)c(O)c1)C(=O)NCc1ccccc1 [AG-490 (Tyrphostin B42)]	LOC_OS01G52050-cb004	°C	0.46
O=c1c(O)c(-c2cc(O)c(O)c(O)c2)oc2cc(O)cc(O)c12 [Myricetin]	LOC_OS01G52050-cb004	°C	5.01

thermal shift delta Tm measured on CN1CCN(c2ccc3nc(-c4c(N)c5c(F)cccc5[nH]c4=O)[nH]c3c2)CC1 [Dovitinib (TKI-258, CHIR-258)] = 3.72

thermal shift delta Tm measured on Cc1cn(-c2cc(NC(=O)c3ccc(C)c(Nc4nccc(-c5cccnc5)n4)c3)cc(C(F)(F)F)c2)cn1 [Nilotinib (AMN-107)] = -0.02

thermal shift delta Tm measured on `COc1ncc(-c2ccc3nccc(-c4ccnnc4)c3c2)cc1NS(=O)(=O)c1ccc(F)cc1F` = 1.09

thermal shift delta Tm measured on O=C(Nc1nc2cccc(-c3ccc(CN4CCS(=O)(=O)CC4)cc3)n2n1)C1CC1 [Filgotinib (GLPG0634)] = 1.03

thermal shift delta Tm measured on COc1cc2nccc(Oc3ccc(NC(=O)NC4CC4)c(Cl)c3)c2cc1C(N)=O [Lenvatinib (E7080)] = 0.33
